molecular target: T1, human CD4 (human, UniProt P01730 26-458); test: FACS, clonal hybridoma supernatant on human PBMCs
T1 construct: whole, on cells; also called hCD4
Please respond with reported % CD4 Stain for every item in the list.
Entry rule: numbers only, all in %.

Per the records, this binder ( 75110_01D24A (antibody, V domains shown, Tested as clonal hybridoma supernatant (AlivaMab Mouse Kappa; anti-mouse Fc detection)) VH: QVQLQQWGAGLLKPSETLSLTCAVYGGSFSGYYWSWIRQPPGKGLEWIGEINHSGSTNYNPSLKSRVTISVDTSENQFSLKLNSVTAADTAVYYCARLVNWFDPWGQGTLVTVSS VL: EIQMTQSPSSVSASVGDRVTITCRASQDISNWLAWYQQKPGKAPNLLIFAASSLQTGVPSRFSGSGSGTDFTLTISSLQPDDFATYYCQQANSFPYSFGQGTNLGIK ) has % CD4 Stain equal to 32.9

Per the records, this binder ( 75110_01K10A (antibody, V domains shown, Tested as clonal hybridoma supernatant (AlivaMab Mouse Kappa; anti-mouse Fc detection); also called Sib1.3) VH: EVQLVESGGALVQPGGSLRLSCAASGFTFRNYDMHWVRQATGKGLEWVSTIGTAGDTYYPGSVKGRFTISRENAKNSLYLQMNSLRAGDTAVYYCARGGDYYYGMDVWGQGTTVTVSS VL: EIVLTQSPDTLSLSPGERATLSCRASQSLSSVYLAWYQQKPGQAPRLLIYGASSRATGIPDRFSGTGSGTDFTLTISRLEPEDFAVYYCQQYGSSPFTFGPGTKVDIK ) has % CD4 Stain equal to 38
